study-system: purified human plasma kallikrein (Homo sapiens)
Construct: Plasma prekallikrein is a zymogen of a trypsin-like serine protease
Sequence (P03952 391-638 limits assumed): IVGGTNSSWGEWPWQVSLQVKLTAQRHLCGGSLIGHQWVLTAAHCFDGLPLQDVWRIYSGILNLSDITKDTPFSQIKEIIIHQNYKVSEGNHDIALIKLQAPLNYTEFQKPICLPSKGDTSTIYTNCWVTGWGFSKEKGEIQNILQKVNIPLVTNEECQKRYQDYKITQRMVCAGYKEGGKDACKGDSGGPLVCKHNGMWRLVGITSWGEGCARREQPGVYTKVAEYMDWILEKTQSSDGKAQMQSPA
Sequence (P03952 20-390 partner limits assumed): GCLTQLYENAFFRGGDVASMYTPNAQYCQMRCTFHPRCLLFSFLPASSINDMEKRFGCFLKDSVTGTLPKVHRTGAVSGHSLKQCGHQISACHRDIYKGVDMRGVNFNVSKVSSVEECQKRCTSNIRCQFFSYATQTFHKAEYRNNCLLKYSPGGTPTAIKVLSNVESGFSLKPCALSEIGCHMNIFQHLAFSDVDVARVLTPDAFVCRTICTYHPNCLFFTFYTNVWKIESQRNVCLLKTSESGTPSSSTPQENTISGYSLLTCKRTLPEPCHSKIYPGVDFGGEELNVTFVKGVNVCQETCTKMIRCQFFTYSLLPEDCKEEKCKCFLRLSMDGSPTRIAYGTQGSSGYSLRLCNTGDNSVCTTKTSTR
experimental-protocol: Plasma kallikrein inhibition assay, chromogenic substrate S-2302 (Ki)
Structures can show the parent of a compound that is named as a salt.

# molecule, study-system, endpoint-unit, Ki
records = [
    ("C[C@@H]1CCC[C@H](N2CCC(c3cc(Cl)ccc3-n3ccnn3)=CC2=O)c2cc(ccn2)-c2c(cnn2C(F)F)NC1=O", "purified human plasma kallikrein (Homo sapiens)", "nM", 37),
    ("CCn1ncc2c1-c1ccnc(c1)[C@@H](N1CCC(c3c(F)ccc(Cl)c3F)=CC1=O)CCC[C@@H](C)C(=O)N2 [Example 45]", "purified human plasma kallikrein (Homo sapiens)", "nM", 54),
    ("C[C@@H]1CCC[C@H](N2CCC(c3c(F)ccc(Cl)c3F)=CC2=O)c2cc(ccn2)-c2nn(-c3ccnc(O)c3)cc2NC1=O", "purified human plasma kallikrein (Homo sapiens)", "nM", 14),
    ("C[C@@H]1CCC[C@H](N2CCC(c3c(Cl)ccc(Cl)c3F)=CC2=O)c2cc(ccn2)-c2c(cnn2C(F)F)NC1=O", "purified human plasma kallikrein (Homo sapiens)", "nM", 11),
    ("C[C@@H]1CCC[C@H](N2CCC(c3cc(Cl)ccc3-n3ccnn3)=CC2=O)c2cc(ccn2)-c2c(cnn2C2CCC2)NC1=O", "purified human plasma kallikrein (Homo sapiens)", "nM", 150),
    ("C[C@@H]1CCC[C@H](N2CCC(c3cc(Cl)ccc3Br)=CC2=O)c2cc(ccn2)-c2c(cnn2C)NC1=O", "purified human plasma kallikrein (Homo sapiens)", "nM", 16),
    ("[2H]C([2H])([2H])n1ncc2c1-c1ccnc(c1)[C@@H](N1CCC(c3c(OC(F)F)ccc(Cl)c3F)=CC1=O)CCC[C@@H](C)C(=O)N2", "purified human plasma kallikrein (Homo sapiens)", "nM", 7),
    ("CCn1ncc2c1-c1ccnc(c1)[C@@H](N1CCC(c3cc(Cl)ccc3-n3ccnn3)=CC1=O)CCC[C@@H](C)C(=O)N2 (stereo in doubt)", "purified human plasma kallikrein (Homo sapiens)", "nM", 41),
    ("[2H]C([2H])([2H])n1ncc2c1-c1ccnc(c1)[C@@H](N1CCC(c3cc(Cl)ccc3-n3cc(Cl)nn3)=CC1=O)CCC[C@@H](C)C(=O)N2", "purified human plasma kallikrein (Homo sapiens)", "nM", 10),
    ("C[C@@H]1CCC[C@H](N2CCC(c3cc(Cl)ccc3-n3ccnn3)=CC2=O)c2cc(ccn2)-c2c(cnn2CC(F)F)NC1=O (stereo in doubt)", "purified human plasma kallikrein (Homo sapiens)", "nM", 90),
    ("C[C@@H]1CCC[C@H](N2CCC(c3cc(Cl)ccc3-n3cc(C(F)(F)F)nn3)=CC2=O)c2cc(ccn2)-c2c(cnn2C)NC1=O", "purified human plasma kallikrein (Homo sapiens)", "nM", 6),
    ("C[C@@H]1CCC[C@H](N2CCC(c3c(C(F)(F)F)ccc(Cl)c3F)=CC2=O)c2cc(ccn2)-c2nn(-c3cncnc3)cc2NC1=O", "purified human plasma kallikrein (Homo sapiens)", "nM", 13),
    ("C[C@@H]1CCC[C@H](n2ccc(-c3c(OC(F)F)ccc(Cl)c3F)cc2=O)c2cc(ccn2)-c2c(cnn2C)NC1=O [Example 27, trifluoroacetate]", "purified human plasma kallikrein (Homo sapiens)", "nM", 40),
]
